- system: T1, hIL1RAP (Homo sapiens, UniProt Q9NPH3)
- T1 sequence (Q9NPH3 21-367 limits assumed): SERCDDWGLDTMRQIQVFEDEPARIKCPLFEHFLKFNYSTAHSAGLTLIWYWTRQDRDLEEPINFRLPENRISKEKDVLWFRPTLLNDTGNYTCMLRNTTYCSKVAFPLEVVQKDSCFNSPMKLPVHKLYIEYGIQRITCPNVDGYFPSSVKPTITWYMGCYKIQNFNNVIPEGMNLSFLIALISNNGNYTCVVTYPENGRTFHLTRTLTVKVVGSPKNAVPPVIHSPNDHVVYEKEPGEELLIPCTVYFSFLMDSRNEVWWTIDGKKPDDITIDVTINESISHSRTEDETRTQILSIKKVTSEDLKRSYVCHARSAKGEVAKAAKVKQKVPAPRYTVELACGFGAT
- protocol: Kinetics of IL1RAP mAbs by Octet, human IL1RAP
- Assay type: binding
- Design: extracellular domain His-tagged, Cat #10121-H08H; His; purchased Sino Biological lot MB08MA1301 (catalogue number not given)
assay_readout: hIL1RAP kon(1/Ms)

1. 74804_43F04A: anti-IL1RAP mAb; VH SEQ ID NO:7, VL SEQ ID NO:22, κ light chain (antibody, V domains shown, 74804_43F04A VH; 74804_07K10A VL, 74804_29D13A VL and 74804_43F04A VL) VH: QVQLLQSGAEVKKPGSSVKVSCKASGGTFSIYAIDWVRQAPGQGLEWMGGIIPIFGTENSAQNFQGRITITADKSTNTAYMELSSLRSEDTAVYYCARNGATSDAFDIWGQGTMVTVFS VL: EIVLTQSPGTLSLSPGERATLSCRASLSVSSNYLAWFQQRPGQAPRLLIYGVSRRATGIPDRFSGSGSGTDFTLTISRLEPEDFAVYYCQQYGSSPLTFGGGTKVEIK: 350200 M⁻¹ s⁻¹
2. 74804_29D13A: anti-IL1RAP mAb; VH SEQ ID NO:6, VL SEQ ID NO:22, κ light chain (antibody, V domains shown, 74804_12A21B VH and 74804_29D13A VH; 74804_07K10A VL, 74804_29D13A VL and 74804_43F04A VL) VH: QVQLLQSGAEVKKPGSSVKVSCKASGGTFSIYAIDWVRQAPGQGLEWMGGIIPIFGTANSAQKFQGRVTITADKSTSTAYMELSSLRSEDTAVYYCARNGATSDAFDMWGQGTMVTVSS VL: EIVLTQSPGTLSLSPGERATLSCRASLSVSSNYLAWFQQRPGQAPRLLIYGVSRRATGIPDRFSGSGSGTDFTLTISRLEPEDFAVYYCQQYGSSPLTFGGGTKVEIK: 336100 M⁻¹ s⁻¹
3. 74804_25H09A: anti-IL1RAP mAb; VH SEQ ID NO:9, VL SEQ ID NO:25, κ light chain (antibody, V domains shown, 74804_25H09A VH; 74804_25H09A VL) VH: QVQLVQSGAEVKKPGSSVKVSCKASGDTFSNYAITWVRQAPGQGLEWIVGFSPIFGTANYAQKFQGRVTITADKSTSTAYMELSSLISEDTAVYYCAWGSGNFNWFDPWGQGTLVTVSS VL: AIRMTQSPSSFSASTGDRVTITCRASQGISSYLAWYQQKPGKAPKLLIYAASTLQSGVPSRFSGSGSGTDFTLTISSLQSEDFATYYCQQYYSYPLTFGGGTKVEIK: 154500 M⁻¹ s⁻¹
4. 74804_12A21B: anti-IL1RAP mAb; VH SEQ ID NO:6, VL SEQ ID NO:23, κ light chain (antibody, V domains shown, 74804_12A21B VH and 74804_29D13A VH; 74804_12A21B VL) VH: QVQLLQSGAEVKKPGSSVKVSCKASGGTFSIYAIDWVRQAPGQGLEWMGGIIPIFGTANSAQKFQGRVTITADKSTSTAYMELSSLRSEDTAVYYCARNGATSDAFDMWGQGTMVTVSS VL: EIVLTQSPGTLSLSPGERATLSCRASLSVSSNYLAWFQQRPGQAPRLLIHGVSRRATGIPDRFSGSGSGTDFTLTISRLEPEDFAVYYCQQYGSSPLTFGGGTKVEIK: 307700 M⁻¹ s⁻¹
